Where do these numbers come from? They come from patent US5399565A.

# ASSAYED_SYSTEM: gastrin receptor (Cavia porcellus, UniProt H0VZC5)
# Construct: Guinea pig stomach fundus was obtained from male Hartley guinea pigs; from tissue; host or cells: stomach fundus mucosal membranes of male Hartley guinea pigs
# Sequence (H0VZC5 1-426): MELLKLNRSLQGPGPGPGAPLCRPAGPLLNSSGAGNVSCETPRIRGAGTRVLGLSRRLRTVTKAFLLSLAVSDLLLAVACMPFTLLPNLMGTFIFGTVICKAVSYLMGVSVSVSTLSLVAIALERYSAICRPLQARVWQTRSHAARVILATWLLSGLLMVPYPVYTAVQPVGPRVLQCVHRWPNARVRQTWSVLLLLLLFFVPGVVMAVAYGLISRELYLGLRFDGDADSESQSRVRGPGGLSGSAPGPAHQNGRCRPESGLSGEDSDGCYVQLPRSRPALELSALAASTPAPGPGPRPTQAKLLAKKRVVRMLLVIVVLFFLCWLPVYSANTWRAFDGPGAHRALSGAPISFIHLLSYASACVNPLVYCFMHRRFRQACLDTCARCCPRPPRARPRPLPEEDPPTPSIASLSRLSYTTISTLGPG
# MEASUREMENT_NOTES: Gastrin binding to guinea pig stomach mucosal membranes (125I-gastrin I)
# RUN_CONDITIONS: guinea pig stomach mucosal membranes; read-out: Gastrin IC50
Below, each entry is listed alongside its reported pIC50.
Field pIC50 (float): negative decimal logarithm of the concentration in molar.

Solved cases below.
O=C1NN(C(=O)Nc2ccc(Br)cc2)C(c2ccccc2)C1c1ccccc1Cl (centres unmarked)    6.66
O=C1NN(C(=O)Nc2ccc(Cl)c(C(F)(F)F)c2)C(c2ccccc2Cl)C1c1ccccc1 (centres unmarked)    6.92
O=C1NN(C(=O)Nc2ccc(Br)cc2)C(c2ccccc2)C1c1cccc2ccccc12 (centres unmarked)    7.03
O=C1NN(C(=O)Nc2cnc3ccccc3c2)[C@@H](c2ccccc2)[C@@H]1c1ccccc1 (relative stereo)    6.80
O=C1NN(C(=O)Nc2ccc(Br)cc2)C(c2ccccc2)C1c1ccc(Cl)cc1 (centres unmarked)    6.07
CC(C)c1ccc(NC(=O)N2NC(=O)C(c3ccccc3)C2c2ccccc2Cl)cc1 (centres unmarked)    6.92

Task item: I'd like to know its pIC50. The compound in question is CC(C)c1ccc(NC(=O)N2NC(=O)[C@@H](c3ccccc3)[C@@H]2c2ccccc2)cc1 (relative stereo)
Reply: 6.59

Task item: For O=C1NN(C(=O)Nc2ccc(Br)cc2)C(c2ccccc2)C1c1cccc(Br)c1 (centres unmarked) , what is its reported pIC50?
Reply: 6.68

Task item: What does the data say about its pIC50? Entry: O=C1NN(C(=O)Nc2ccc(Br)cc2)C(c2cccnc2)C1c1ccccc1 (centres unmarked)
Reply: 5.77

Task item: Field request: pIC50 | item: O=C1NN(C(=O)Nc2ccc(Cl)c(Cl)c2)[C@H](c2ccccc2)[C@H]1c1ccccc1 (relative stereo)
Reply: 6.68

Task item: Need pIC50, item O=C1NN(C(=O)Nc2ccc(C(F)(F)F)cc2)C(c2ccccc2Cl)C1c1ccccc1 (centres unmarked)
Reply: 6.89

Task item: GET /values?readout=pIC50&item= O=C1NN(C(=O)Nc2ccc3c(c2)CCC3)[C@H](c2ccccc2)[C@H]1c1ccccc1 (relative stereo)
Reply: 6.60

Task item: Would you mind telling me what pIC50 value was observed for O=C1NN(C(=O)Nc2ccc(Br)cc2)[C@@H](c2cccc(Cl)c2Cl)[C@@H]1c1ccccc1 (relative stereo) ?
Reply: 6.64

Task item: # lookup: pIC50 of COc1ccccc1C1C(c2ccccc2)C(=O)NN1C(=O)Nc1ccc(Br)cc1 (centres unmarked)
Reply: 6.49

Task item: Request the reported pIC50 associated with O=C1NN(C(=O)NCCc2ccccc2Cl)[C@@H](c2ccccc2)[C@@H]1c1ccccc1 (relative stereo)
Reply: 6.06

Task item: Which pIC50 value belongs to O=C1NN(C(=O)Nc2ccc3ncccc3c2)[C@@H](c2ccccc2)[C@@H]1c1ccccc1 (relative stereo) ?
Reply: 6.18

Task item: For the compound O=C1NN(C(=O)Nc2ccc(OCc3ccccc3)cc2)[C@@H](c2ccccc2)[C@@H]1c1ccccc1 (relative stereo) , what pIC50 is on record?
Reply: 5.96
